Test system: MDA-MB-453 (breast, carcinoma) cells
Test: Cell viability assay, CellTiter-Glo (Example 21)
Type: cell-based, human
Details: 300 nM, 72 h treatment
PARAMETER_MEASURED: MDA-MB-453 (breast, carcinoma) cell viability (% of control)

Answered cases to consult:
O=C1C2=C(CCN(Cc3cc(F)cc(F)c3)C2)N2CCN=C2N1Cc1ccc(F)cc1 = 31.6 ± 0.9 % of control
[N-]=[N+]=Nc1cccc(CN2CCC3=C(C2)C(=O)N(Cc2ccc(Cl)cc2)C2=NCCN23)c1 = 31.7 ± 0.5 % of control
[N-]=[N+]=Nc1cccc(CN2CCC3=C(C2)C(=O)N(Cc2ccc(C(F)(F)F)cc2)C2=NCCN23)c1 = 28.8 ± 0.4 % of control
O=C1C2=C(CCN(Cc3cc(F)cc(F)c3)C2)N2CCN=C2N1Cc1ccc(Cl)cc1 = 30.9 ± 1.4 % of control
O=C1C2=C(CCN(Cc3cc(F)cc(F)c3)C2)N2CCN=C2N1Cc1ccc(C(F)(F)F)cc1 = 28.9 ± 1.0 % of control

Input: GET /values?readout=MDA-MB-453 (breast, carcinoma) cell viability (% of control)&item= O=C1C2=C(CCN(Cc3cccc(F)c3)C2)N2CCN=C2N1Cc1ccc(F)cc1 [I/6, reference compound]
Output: 32.0 ± 1.1 % of control

Input: Please do the same for O=C1C2=C(CCN(Cc3cccc(F)c3)C2)N2CCN=C2N1Cc1ccc(C(F)(F)F)cc1 [I/3, reference compound] as well.
Output: 29.8 ± 1.5 % of control

Input: Please do the same for O=C1C2=C(CCN(Cc3ccccc3)C2)N2CCN=C2N1Cc1ccc(C(F)(F)F)cc1 [I/1, reference compound] as well.
Output: 32.5 ± 0.5 % of control

Input: Please do the same for "[N-]=[N+]=Nc1ccc(CN2C(=O)C3=C(CCN(Cc4cc(F)cc(F)c4)C3)N3CCN=C23)cc1" as well.
Output: 32.2 ± 1.3 % of control
